Let's look at some binders and their measured IC50.
Target: cynomolgus formyl peptide receptor 1 (cynomolgus monkey)
Test: FMAT competition binding on cells
Unit nM implied. Number only.

>>> assay_value("Fpro0084 IgG (antibody, V domains shown) VH: EVQLVESGGGLVKPGGSLRLSCAASGFTFSNAWMNWVRQAPGKGLEWVGRIKSKTDGGAADYAAPVKGRFTISRDDSKNTLYLQMNSLKTEDTAVYYCTTDQLGYDFWSGYYTDTLYYYFGMDVWGPGTTVTVSS VL: DIVMTQSPLSLPVTPGEPASISCRSSQQLQAYDGHNYLDWYLQKPGQSPQVLIYLGSNRASGVPDRFSGSGSGTDFTLKISRVEAEDVGVYYCMQALQTPLTFGGGTKVEIK")
13

Qu. What does the record list as IC50 for Fpro0025 IgG (antibody, V domains shown) VH: EVQLVESGGGLVKPGGSLRLSCAASGFTFSNAWMNWVRQAPGKGLEWVGRIKSKTDGGAADYAAPVKGRFTISRDDSKNTLYLQMNSLKTEDTAVYYCTTDQLGYDFWSGYYTDTLYYYFGMDVWGPGTTVTVSS VL: DIVMTQSPLSLPVTPGEPASISCRSSQPLLAMDGHNYLDWYLQKPGQSPQVLIYLGSNRASGVPDRFSGSGSGTDFTLKISRVEAEDVGVYYCMQALQTPLTFGGGTKVEIK ?
Ans. 33

Qu. What does the record list as IC50 for Fpro0165 IgG (antibody, V domains shown) VH: EVQLVESGGGLVKPGGSLRLSCAASGFTFSNAWMNWVRQAPGKGLEWVGRVKSKTDGGAADYAAPVKGRFTISRDDSKNTLYLQMNSLKTEDTAVYYCTTDQLGYDFWNGYYTDTLYYYFGMDVWGPGTTVTVSS VL: DIVMTQSPLSLPVTPGEPASISCRSSQPLLAMDGHNYLDWYLQKPGQSPQVLIYQSKWRASGVPDRFSGSGSGTDFTLKISRVEAEDVGVYYCMQALQTPLTFGGGTKVEIK ?
Ans. 20
